Target system: P-gp (ABCB1) ATPase (Homo sapiens, UniProt P08183)
Sequence (P08183 whole entry): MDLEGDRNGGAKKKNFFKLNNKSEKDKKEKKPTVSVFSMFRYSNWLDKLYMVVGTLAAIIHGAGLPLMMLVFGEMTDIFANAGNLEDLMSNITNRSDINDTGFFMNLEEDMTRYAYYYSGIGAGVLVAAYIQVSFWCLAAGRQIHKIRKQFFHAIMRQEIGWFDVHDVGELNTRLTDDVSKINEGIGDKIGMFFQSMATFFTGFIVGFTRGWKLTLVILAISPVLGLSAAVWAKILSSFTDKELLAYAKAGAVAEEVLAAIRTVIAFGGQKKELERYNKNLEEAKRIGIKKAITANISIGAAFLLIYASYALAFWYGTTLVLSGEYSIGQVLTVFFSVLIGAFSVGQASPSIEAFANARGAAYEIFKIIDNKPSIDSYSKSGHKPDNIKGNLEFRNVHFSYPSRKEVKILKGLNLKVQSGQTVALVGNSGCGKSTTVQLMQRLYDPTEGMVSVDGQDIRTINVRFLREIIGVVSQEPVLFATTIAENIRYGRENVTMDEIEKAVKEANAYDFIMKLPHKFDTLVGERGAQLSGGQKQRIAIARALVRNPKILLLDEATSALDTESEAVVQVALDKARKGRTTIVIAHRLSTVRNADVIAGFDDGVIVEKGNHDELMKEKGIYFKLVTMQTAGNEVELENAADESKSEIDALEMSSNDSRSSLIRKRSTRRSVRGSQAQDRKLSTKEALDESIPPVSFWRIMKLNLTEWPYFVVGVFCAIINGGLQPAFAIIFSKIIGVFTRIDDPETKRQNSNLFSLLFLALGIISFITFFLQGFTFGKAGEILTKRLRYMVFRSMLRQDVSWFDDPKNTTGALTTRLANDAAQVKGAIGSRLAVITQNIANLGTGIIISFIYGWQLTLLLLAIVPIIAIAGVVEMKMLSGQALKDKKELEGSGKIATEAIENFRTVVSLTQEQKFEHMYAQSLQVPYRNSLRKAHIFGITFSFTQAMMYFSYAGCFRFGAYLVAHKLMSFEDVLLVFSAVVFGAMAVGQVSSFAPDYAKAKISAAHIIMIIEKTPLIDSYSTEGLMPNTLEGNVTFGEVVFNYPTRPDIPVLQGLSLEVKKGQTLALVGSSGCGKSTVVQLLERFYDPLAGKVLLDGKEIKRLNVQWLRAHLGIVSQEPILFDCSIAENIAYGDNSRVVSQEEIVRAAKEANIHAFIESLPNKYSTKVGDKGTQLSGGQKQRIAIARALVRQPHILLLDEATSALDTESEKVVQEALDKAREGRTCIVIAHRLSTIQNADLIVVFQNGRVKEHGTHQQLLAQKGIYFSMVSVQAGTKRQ
Experiment description: Stimulation of P-gp ATPase activity (unknown origin) at 0.5 mM preincubated for 5 mins followed by Mg-ATP addition measured after 40 mins by ATP-Glo luminescence assay relative to control
Experimental conditions: read-out: FC
Measurement kind: fold induction at 40 min, 500 µM
Answer with a number only.

Item: CC(C)(C)OC(=O)NCCCCCC(=O)N[C@H]1CC[C@]2(C)[C@H]3C[C@@H](O)[C@@H]4[C@@H]([C@]5(C)CC[C@H](C(C)(C)O)O5)CC[C@@]4(C)[C@]3(C)CC[C@H]2C1(C)C | System: P-gp (ABCB1) ATPase (Homo sapiens, UniProt P08183) | fold induction at 40 min, 500 µM: 6.03

The measured values listed here are drawn from ChEMBL document CHEMBL4325852.
